Cited source for all entries: ChEMBL document CHEMBL1201862

Assay: P. falciparum Dd2 growth inhibitors, dose response, SYBR Green, cherry-picked samples (AID 1159567)
Type: functional, cell-based
The source made the active and inactive calls. Rule as the data show it: actives have a measured AC50 and inactives only a lower limit.

- Compound string: "CC(C)CC#Cc1ccc([C@@H]2[C@@H](CO)N3CCCCN(S(=O)(=O)Cc4ccccc4)C[C@@H]23)cc1"
  AC50: "5.76 µM (active)"
- Compound string: "COc1ccc2c3c(n(C)c2c1)[C@H](CO)NCC31CCN(Cc2ccc(-c3ccccn3)cc2)CC1"
  AC50: "0.322 µM (active)"
- Compound string: "C[C@H](CO)N1C[C@H](C)[C@H](CN(C)Cc2ccc(Oc3ccccc3)cc2)Oc2ccc(NS(=O)(=O)c3ccc(Cl)cc3)cc2CC1=O"
  AC50: "7.51 µM (active)"
- Compound string: "CCCNC(=O)N1[C@H](C#N)[C@H](c2ccc(C3=CCCCC3)cc2)[C@@H]1CO"
  AC50: "< 0.3 µM (active)"
- Compound string: "COc1ccc2c3c([nH]c2c1)[C@H](CO)N(C(=O)C1CCCC1)CC31CCN(Cc2cccc(F)c2)CC1"
  AC50: "3.49 µM (active)"
